System: 171881-019-R-J1-PDC tumor spheroid viability;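 also: spheroids exposed to compound for 7 days before viability read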
Assay: Anticancer human tumor 171881-019-R-J1-PDC patient-derived invasive breast carcinoma cell line growth inhibition [PI3K]
Conditions: curve of first compound; second compound 1 µM; spheroids with HUVEC and MSC
pIC50: −log10 of the molar value.
RESULT_TYPE: pIC50

// worked examples, pIC50 included
CCN1CCN(Cc2ccc(Nc3ncc(F)c(-c4cc(F)c5nc(C)n(C(C)C)c5c4)n3)nc2)CC1 + COc1c(OCCCN2CCOCC2)ccc2c3n(c(=NC(=O)c4cnc(N)nc4)nc12)CCN3 : > 8.50
C=CC(=O)N1CCN(c2nc(=O)n(-c3c(C)ccnc3C(C)C)c3nc(-c4c(O)cccc4F)c(F)cc23)C(C)C1 (stereo unspecified) + CC(Nc1ccc2c(c1)OCCn1cc(N3C(=O)OCC3C(F)F)nc1-2)C(N)=O : > 7.50
CCN1CCN(Cc2ccc(Nc3ncc(F)c(-c4cc(F)c5nc(C)n(C(C)C)c5c4)n3)nc2)CC1 + CC(Nc1ccc2c(c1)OCCn1cc(N3C(=O)OCC3C(F)F)nc1-2)C(N)=O : > 8.50
C[C@@H](NC(=O)c1ncnc(N)c1Cl)c1ncc(C(=O)Nc2cc(C(F)(F)F)c(Cl)cn2)s1 + CC(Nc1ncnc2nc[nH]c12)c1cc2cccc(Cl)c2c(=O)n1-c1ccccc1 : 5.15
Cn1cnc2c(F)c(Nc3ccc(Br)cc3Cl)c(C(=O)NOCCO)cc21 + Cc1nc(NC(=O)N2CCCC2C(N)=O)sc1-c1ccnc(C(C)(C)C(F)(F)F)c1 : > 8.02
Cn1ncnc1[C@H]1c2n[nH]c(=O)c3cc(F)cc(c23)N[C@@H]1c1ccc(F)cc1 + Cc1nc(NC(=O)N2CCCC2C(N)=O)sc1-c1ccnc(C(C)(C)C(F)(F)F)c1 : > 9.50
CNC(=O)c1ccc(N2C(=S)N(c3ccc(C#N)c(C(F)(F)F)c3)C(=O)C2(C)C)cc1F + COc1c(OCCCN2CCOCC2)ccc2c3n(c(=NC(=O)c4cnc(N)nc4)nc12)CCN3 : > 7.50
CC1(C)CCC(Nc2ncc(C(F)(F)F)c(-c3c[nH]c4c(P(C)(C)=O)c(C#N)ccc34)n2)CN1 (stereo unspecified) + COc1c(OCCCN2CCOCC2)ccc2c3n(c(=NC(=O)c4cnc(N)nc4)nc12)CCN3 : > 7.50
CC(Cn1ccc(-c2ccc(C#N)c(Cl)c2)n1)NC(=O)c1cc(C(C)O)[nH]n1 (stereo unspecified) + CC(Nc1ccc2c(c1)OCCn1cc(N3C(=O)OCC3C(F)F)nc1-2)C(N)=O : > 7.50
CC(C)n1nc(-c2ccc3oc(N)nc3c2)c2c(N)ncnc21 + COc1c(OCCCN2CCOCC2)ccc2c3n(c(=NC(=O)c4cnc(N)nc4)nc12)CCN3 : > 9.50

Query: Note pIC50 for the compound shown: CNC(=O)c1ccc(N2C(=S)N(c3ccc(C#N)c(C(F)(F)F)c3)C(=O)C2(C)C)cc1F + Cc1nc(NC(=O)N2CCCC2C(N)=O)sc1-c1ccnc(C(C)(C)C(F)(F)F)c1
Reply: > 7.50

Query: For the compound Cn1ncc(Cl)c1-c1cc(C(=O)NC(CN)Cc2cccc(F)c2)sc1Cl (stereo unspecified) + Cc1nc(NC(=O)N2CCCC2C(N)=O)sc1-c1ccnc(C(C)(C)C(F)(F)F)c1 , give its measured pIC50 value.
Reply: > 7.50

Query: Determine from records and report pIC50 for CC1(C)CCC(Nc2ncc(C(F)(F)F)c(-c3c[nH]c4c(P(C)(C)=O)c(C#N)ccc34)n2)CN1 (stereo unspecified) + CC(Nc1ncnc2nc[nH]c12)c1cc2cccc(Cl)c2c(=O)n1-c1ccccc1
Reply: 5.28

Query: Respond only with pIC50 recorded for C[C@@H](NC(=O)c1ncnc(N)c1Cl)c1ncc(C(=O)Nc2cc(C(F)(F)F)c(Cl)cn2)s1 + CC(Nc1ccc2c(c1)OCCn1cc(N3C(=O)OCC3C(F)F)nc1-2)C(N)=O
Reply: > 7.50

Query: Check the records and state pIC50 for Cn1cnc2c(F)c(Nc3ccc(Br)cc3Cl)c(C(=O)NOCCO)cc21 + CC(Nc1ncnc2nc[nH]c12)c1cc2cccc(Cl)c2c(=O)n1-c1ccccc1
Reply: 6.37

Query: State, in one line, measured pIC50 of CC(=O)c1c(C)c2cnc(Nc3ccc(N4CCNCC4)cn3)nc2n(C2CCCC2)c1=O + COc1c(OCCCN2CCOCC2)ccc2c3n(c(=NC(=O)c4cnc(N)nc4)nc12)CCN3
Reply: > 9.50

Query: Note pIC50 for the compound shown: CC(=O)c1c(C)c2cnc(Nc3ccc(N4CCNCC4)cn3)nc2n(C2CCCC2)c1=O + Cc1nc(NC(=O)N2CCCC2C(N)=O)sc1-c1ccnc(C(C)(C)C(F)(F)F)c1
Reply: > 9.50

Query: For CC(Cn1ccc(-c2ccc(C#N)c(Cl)c2)n1)NC(=O)c1cc(C(C)O)[nH]n1 (stereo unspecified) + CC(Nc1ncnc2nc[nH]c12)c1cc2cccc(Cl)c2c(=O)n1-c1ccccc1 , write its pIC50.
Reply: < 5.00

Query: Using the record for Cn1ncc(Cl)c1-c1cc(C(=O)NC(CN)Cc2cccc(F)c2)sc1Cl (stereo unspecified) + CC(Nc1ncnc2nc[nH]c12)c1cc2cccc(Cl)c2c(=O)n1-c1ccccc1 , state its measured pIC50.
Reply: 6.82

Query: Using the record for C=CC(=O)N1CCN(c2nc(=O)n(-c3c(C)ccnc3C(C)C)c3nc(-c4c(O)cccc4F)c(F)cc23)C(C)C1 (stereo unspecified) + CC(Nc1ncnc2nc[nH]c12)c1cc2cccc(Cl)c2c(=O)n1-c1ccccc1 , state its measured pIC50.
Reply: < 5.00

Query: Return value of pIC50 for input CC1(C)CCC(CN2CCN(c3ccc(C(=O)NS(=O)(=O)c4ccc(NCC5CCOCC5)c([N+](=O)[O-])c4)c(Oc4cnc5[nH]ccc5c4)c3)CC2)=C(c2ccc(Cl)cc2)C1 + CC(Nc1ncnc2nc[nH]c12)c1cc2cccc(Cl)c2c(=O)n1-c1ccccc1 , no commentary.
Reply: 5.40
